Can you tell me binding signal for the items I'm about to list?
Biological target: OsWRKY34 (Oryza sativa, UniProt Q0JBA9 1-250)
Sequence (Q0JBA9 entry or part of it): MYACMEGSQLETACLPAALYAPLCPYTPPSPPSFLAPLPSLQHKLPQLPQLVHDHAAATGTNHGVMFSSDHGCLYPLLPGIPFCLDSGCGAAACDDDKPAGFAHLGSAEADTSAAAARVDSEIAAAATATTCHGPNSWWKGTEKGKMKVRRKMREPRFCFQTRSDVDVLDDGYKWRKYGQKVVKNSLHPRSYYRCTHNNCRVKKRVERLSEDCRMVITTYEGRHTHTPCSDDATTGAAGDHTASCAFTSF
Assay: protein-binding microarray (RPBM); PBS, 2% BSA, 51.3 ng/ul salmon testes DNA, 50 uM zinc acetate, 200 nM TF, 25 C, 1 h; high values mean tight binding
Details: protein: recombinant; tags: N-terminal polyhistidine and DsRed monomer fusion (pET32a); label: CyDye5-dUTP incorporated in the synthesized complementary strand; 3' TTTTT single-stranded linker to array surface; dsDNA, one strand shown
The full ranking holds about 68,000 sequences; the median of “fluorescence intensity (a.u.)” is about 9,100, and the highest 2% start at about 16,000. The entries come from a sample that favours the highest values as a whole.

Sample GTCTTATTGTGGTTGGGAGTTTAACGGTGTACCGAAGAAACGGAGTCACCTAGTGCAG — what was its binding signal?
8780 fluorescence intensity (a.u.)

Sample GTAGGAGGGTGGTTGGTTGTAGAATGGGAAGAAATTTGAACGGAGTCACCTAGTGCAG — what was its binding signal?
11100 fluorescence intensity (a.u.)

Sample TCTTGCAATCTTGATCGATAGTCTCCTCCATCTTCTTCGTCGGAGTCACCTAGTGCAG — what was its binding signal?
8680 fluorescence intensity (a.u.)

Sample TGGTTTTCTGTTTTCTTGGTTTTGGGTGGTGGCAGTTGACCGGAGTCACCTAGTGCAG — what was its binding signal?
23200 fluorescence intensity (a.u.)

###

Molecular target: OsWRKY34 (Oryza sativa, UniProt Q0JBA9 1-250)
Assay: protein-binding microarray (RPBM); PBS, 2% BSA, 51.3 ng/ul salmon testes DNA, 50 uM zinc acetate, 200 nM TF, 25 C, 1 h; high values mean tight binding
Conditions: protein: recombinant; tags: N-terminal polyhistidine and DsRed monomer fusion (pET32a); label: CyDye5-dUTP incorporated in the synthesized complementary strand; 3' TTTTT single-stranded linker to array surface; dsDNA, one strand shown
Over roughly 68,000 sequences, “fluorescence intensity (a.u.)” has its median near 9,100; the highest 2% begin near 16,000. What follows is part of a selection rich in the highest values, with near analogues and random picks from the rest.
Result type: binding signal

Sample TCCCGTACGCCTCTACTACCTCTTTTACCTGCGTGCCTTCCGGAGTCACCTAGTGCAG — what was its binding signal?
11100 fluorescence intensity (a.u.)

Sample CTAGCTTTGAGGTGGAGGTGGTGGTGGAGGAGGAGGAGGACGGAGTCACCTAGTGCAG — what was its binding signal?
12600 fluorescence intensity (a.u.)

Sample CCCTAAATATTTGACACCGTTGACTTTTTTAAATATGTTTCGGAGTCACCTAGTGCAG — what was its binding signal?
39600 fluorescence intensity (a.u.)

Sample TGCGTTGACTTTATCTTCAAATTAATTATGTGCTAATAGGCGGAGTCACCTAGTGCAG — what was its binding signal?
22300 fluorescence intensity (a.u.)

Sample CAGCCCGCCGCCCCGCCCCGCCCCGCCGCAGGTCATTGACCGGAGTCACCTAGTGCAG — what was its binding signal?
16400 fluorescence intensity (a.u.)

Sample AGCTATATTACTCACCTTCTCTCTTTAAGCCTGTCTAGTACGGAGTCACCTAGTGCAG — what was its binding signal?
10300 fluorescence intensity (a.u.)

Sample TGTGGTGCGTCTCCTCGTGCAGTTTTTGCCCTTGATTTGACGGAGTCACCTAGTGCAG — what was its binding signal?
11800 fluorescence intensity (a.u.)

Sample GCGCTACGGACGGAAGAGACGGAGTGGCACGGAATAAAGACGGAGTCACCTAGTGCAG — what was its binding signal?
61600 fluorescence intensity (a.u.)

Sample CGATTTTTATTTTTCGCCGGATGGGGTTGACTTTTTTTTACGGAGTCACCTAGTGCAG — what was its binding signal?
20900 fluorescence intensity (a.u.)

Sample GGATTTTTGACGGGGTTTTGCAACGGACTTGACTTGTTTACGGAGTCACCTAGTGCAG — what was its binding signal?
8320 fluorescence intensity (a.u.)

Sample CAAATTATGAGCCTGTTCACTTTGATGCTCTTTTCAACCACGGAGTCACCTAGTGCAG — what was its binding signal?
8320 fluorescence intensity (a.u.)

Sample GCGGGGCGGTGACAACGACGGCGGTGCGGGGCGGTGGTGACGGAGTCACCTAGTGCAG — what was its binding signal?
10300 fluorescence intensity (a.u.)

###

Target: OsWRKY34 (Oryza sativa, UniProt Q0JBA9 1-250)
Assay: protein-binding microarray (RPBM); PBS, 2% BSA, 51.3 ng/ul salmon testes DNA, 50 uM zinc acetate, 200 nM TF, 25 C, 1 h; high values mean tight binding
Details: protein: recombinant; tags: N-terminal polyhistidine and DsRed monomer fusion (pET32a); label: CyDye5-dUTP incorporated in the synthesized complementary strand; 3' TTTTT single-stranded linker to array surface; dsDNA, one strand shown
The full ranking holds about 68,000 sequences; the median of “fluorescence intensity (a.u.)” is about 9,100, and the highest 2% start at about 16,000. The entries come from a sample that favours the highest values as a whole.
Result type: binding signal

Sample TCTTCTTTTGTTGTCTTCTGCTATCCAATCTCTTGTCAAACGGAGTCACCTAGTGCAG — what was its binding signal?
10500 fluorescence intensity (a.u.)

Sample CGCGGGTGGTCTGGTCTCTCTCTCGTATCGTATCGTATCACGGAGTCACCTAGTGCAG — what was its binding signal?
16700 fluorescence intensity (a.u.)

Sample AAGGACCCGTTCTATCTGGTTTTGCGGTTGAAGGATAGAACGGAGTCACCTAGTGCAG — what was its binding signal?
28000 fluorescence intensity (a.u.)

Sample AGCACCACCACCACCCCAGCGCCTCCTACTCCACCGGCTCCGGAGTCACCTAGTGCAG — what was its binding signal?
8830 fluorescence intensity (a.u.)

Sample TGCTCTCTCTCGTGTGGTCTGGTCCGCGCGCTCGTGTATACGGAGTCACCTAGTGCAG — what was its binding signal?
9150 fluorescence intensity (a.u.)

Sample GGGGAGGGAAGGGATGGATCGGATGCGGGTTCGGGCGGTTCGGAGTCACCTAGTGCAG — what was its binding signal?
8910 fluorescence intensity (a.u.)

Sample TTTTTCTTTTTATTGTCTTGTTCTCGTGCGTGTTGAAAAACGGAGTCACCTAGTGCAG — what was its binding signal?
20300 fluorescence intensity (a.u.)

###

Molecular target: OsWRKY34 (Oryza sativa, UniProt Q0JBA9 1-250)
Test: protein-binding microarray (RPBM); PBS, 2% BSA, 51.3 ng/ul salmon testes DNA, 50 uM zinc acetate, 200 nM TF, 25 C, 1 h; high values mean tight binding
Settings: protein: recombinant; tags: N-terminal polyhistidine and DsRed monomer fusion (pET32a); label: CyDye5-dUTP incorporated in the synthesized complementary strand; 3' TTTTT single-stranded linker to array surface; dsDNA, one strand shown
The full ranking holds about 68,000 sequences; the median of “fluorescence intensity (a.u.)” is about 9,100, and the highest 2% start at about 16,000. What follows is part of a selection rich in the highest values, with near analogues and random picks from the rest.
Can you tell me binding signal for the items I'm about to list?

Sample GATGTGGATTTGGGATGTTAATTTGATTTGGGATTTGGGGCGGAGTCACCTAGTGCAG — what was its binding signal?
10600 fluorescence intensity (a.u.)

Sample ACCTCAACAAAAGCTTTGTAGTAGCTCTTAATTGTTGGGTCGGAGTCACCTAGTGCAG — what was its binding signal?
8220 fluorescence intensity (a.u.)

Sample CTGAGAATTTAGGACCTGATCACTTTTATGACATTTTCAACGGAGTCACCTAGTGCAG — what was its binding signal?
8610 fluorescence intensity (a.u.)

Sample GCGGTGGTGGTGGGCTTAGTGGAGGCGGAGGCGGCTGAGGCGGAGTCACCTAGTGCAG — what was its binding signal?
17400 fluorescence intensity (a.u.)

Sample CTTCTGCTTGGTGTGTTGTGTGTTTTACCTTGAGTTATCTCGGAGTCACCTAGTGCAG — what was its binding signal?
8480 fluorescence intensity (a.u.)

Sample AACCCATTACATAGCTGCAAGAAACCCAATCTTTCTTTACCGGAGTCACCTAGTGCAG — what was its binding signal?
8420 fluorescence intensity (a.u.)

Sample CGGTTGCTCCTTTGCCTAATCACTCAATTCCAGTAACTTTCGGAGTCACCTAGTGCAG — what was its binding signal?
8760 fluorescence intensity (a.u.)

Sample CAGATGGTCTGGTGGTCGGCGGAGGTCCCGGCGCGCGCGTCGGAGTCACCTAGTGCAG — what was its binding signal?
8360 fluorescence intensity (a.u.)

Sample GACCTGAAGTTCTCGTTGTGTTGGCCTGCGTTTTTATCTGCGGAGTCACCTAGTGCAG — what was its binding signal?
16800 fluorescence intensity (a.u.)

Sample TACTCCTTATATTCCTTCATTTTTCAGCCTCGATCAGCTCCGGAGTCACCTAGTGCAG — what was its binding signal?
8130 fluorescence intensity (a.u.)

Sample ATATCTGCTTCTACGTCGTCTACGAAGCCGCCGAGACGTCCGGAGTCACCTAGTGCAG — what was its binding signal?
9320 fluorescence intensity (a.u.)

Sample TCAACACAGCAACGTTTCACTTTCATATCATCTGATTATTCGGAGTCACCTAGTGCAG — what was its binding signal?
8470 fluorescence intensity (a.u.)

Sample ATATAGCTTGCTTGTTCGGTTGTTCCACTGTTCCGTGAGGCGGAGTCACCTAGTGCAG — what was its binding signal?
8310 fluorescence intensity (a.u.)
